Parameter: kon. Scope: all listed entries.
Target: GST-HBx (genotype D); HBx-D (Hepatitis B virus, UniProt Q80IS1)
Construct: gene X; N-terminal GST tag kept (GST 26 kDa; GST-HBx 43 kDa), full-length HBx (154 aa), pGEX, E. coli BL21 (DE3), glutathione-Sepharose
Assay: biochemical
Design: Surface plasmon resonance imaging; GST-HBx injected over chip of photo-crosslinked FDA-approved drugs (PlexArray HT), Langmuir fit
Conditions: read-out: kon
Numeric only. Scale: M⁻¹ s⁻¹

Compound	Readout Units	Readout Value
CC[C@H]1OC(=O)C[C@@H](O)[C@H](C)[C@@H](O[C@@H]2O[C@H](C)[C@@H](O)[C@H](N(C)C)[C@H]2O)[C@@H](CCN2C[C@H](C)C[C@H](C)C2)C[C@@H](C)C(=O)/C=C/C(C)=C/[C@@H]1CO[C@@H]1O[C@H](C)[C@@H](O)[C@@H](OC)[C@H]1OC [Tilmicosin]	M⁻¹ s⁻¹	67700
CC1=NN(c2ccc(C)c(C)c2)C(=O)/C1=N\Nc1cccc(-c2cccc(C(=O)O)c2)c1O [Eltrombopag]	M⁻¹ s⁻¹	45500
O=C(O)c1ccc(-n2nc(-c3ccccc3O)nc2-c2ccccc2O)cc1 [Deferasirox]	M⁻¹ s⁻¹	95800
CCCc1nc(C(C)(C)O)c(C(=O)OCc2oc(=O)oc2C)n1Cc1ccc(-c2ccccc2-c2nnn[nH]2)cc1 [Olmesartan medoxomil]	M⁻¹ s⁻¹	108000

// next entry
Send back GST-HBx (genotype D); HBx-D (Hepatitis B virus, UniProt Q80IS1) kon of Cc1noc(NS(=O)(=O)c2ccc(N)cc2)c1C [Sulfisoxazole] only.
51500

Where these numbers come from: paper PMC9569680
